- assay-explanation: Clearance in mouse liver microsomes at 1 uM incubated for 10 mins by LC-MS/MS method
- Format: ADME, Microsome

compound | unit-abbrev | CLhep predicted at 1 µM
CC(C)(C)N1C[C@H](C(=O)Nc2ccc(Cl)cc2)[C@@H](c2ccc(/C=C/C(=O)Nc3ccccc3N)cc2)C1 (racemic) | mL/min/kg | 20
CN1C[C@H](C(=O)Nc2ccc(Br)cc2)[C@@H](c2ccc(/C=C/C(=O)Nc3ccccc3N)cc2)C1 (racemic) | mL/min/kg | 16
Nc1ccccc1NC(=O)/C=C/c1ccc([C@H]2CN(CCF)C[C@@H]2C(=O)Nc2ccc(Cl)cc2)cc1 (racemic) | mL/min/kg | 51
CN1C[C@H](C(=O)Nc2ccc(F)c(Cl)c2)[C@@H](c2ccc(/C=C/C(=O)Nc3ccccc3N)cc2)C1 (racemic) | mL/min/kg | 34
Nc1ccccc1NC(=O)/C=C/c1ccc(C(NCCN2CCOCC2)C(=O)Nc2ccc(C(F)(F)F)cc2)cc1 (racemic) | mL/min/kg | 78
Nc1ccccc1NC(=O)/C=C/c1ccc([C@H]2CN(Cc3ccccc3)C[C@@H]2C(=O)Nc2ccc(Cl)cc2)cc1 (racemic) | mL/min/kg | 81
Cc1cccc(NC(=O)[C@H]2CN(C)C[C@@H]2c2ccc(/C=C/C(=O)Nc3ccccc3N)cc2)c1 (racemic) | mL/min/kg | 74
CN1C[C@H](C(=O)Nc2ccc(F)c(Br)c2)[C@@H](c2ccc(/C=C/C(=O)Nc3ccccc3N)cc2)C1 (racemic) | mL/min/kg | 43
Nc1ccccc1NC(=O)/C=C/c1ccc([C@H]2CN(CC(F)F)C[C@@H]2C(=O)Nc2ccc(Cl)cc2)cc1 (racemic) | mL/min/kg | 49
CC(C)NC(=O)[C@H]1CN(C)C[C@@H]1c1ccc(/C=C/C(=O)Nc2ccccc2N)cc1 (racemic) | mL/min/kg | 12
CN1C[C@H](C(=O)NC2CC2)[C@@H](c2ccc(/C=C/C(=O)Nc3ccccc3N)cc2)C1 (racemic) | mL/min/kg | 7
CN1C[C@H](C(=O)Nc2ccc(Cl)cc2F)[C@@H](c2ccc(/C=C/C(=O)Nc3ccccc3N)cc2)C1 (racemic) | mL/min/kg | 43
CN1C[C@H](C(=O)Nc2ccc(C(F)(F)F)cc2)[C@@H](c2ccc(/C=C/C(=O)Nc3ccccc3N)cc2)C1 (racemic) | mL/min/kg | 23
CN1C[C@H](C(=O)Nc2ccc(Cl)cn2)[C@@H](c2ccc(/C=C/C(=O)Nc3ccccc3N)cc2)C1 (racemic) | mL/min/kg | 31
CN1C[C@H](C(=O)Nc2ccc(Cl)cc2)[C@@H](c2ccc(/C=C/C(=O)Nc3ccccc3N)cc2)C1 (racemic) | mL/min/kg | 35
CN1C[C@H](C(=O)Nc2ccc(Cl)c(Cl)c2)[C@@H](c2ccc(/C=C/C(=O)Nc3ccccc3N)cc2)C1 (racemic) | mL/min/kg | 36
CN1C[C@H](C(=O)Nc2ccccc2F)[C@@H](c2ccc(/C=C/C(=O)Nc3ccccc3N)cc2)C1 (racemic) | mL/min/kg | 67
CN1C[C@H](C(=O)Nc2ccc(F)c(F)c2)[C@@H](c2ccc(/C=C/C(=O)Nc3ccccc3N)cc2)C1 (racemic) | mL/min/kg | 46
CN1C[C@H](C(=O)Nc2ccc(C3CC3)cc2)[C@@H](c2ccc(/C=C/C(=O)Nc3ccccc3N)cc2)C1 (racemic) | mL/min/kg | 60
COc1ccc(NC(=O)[C@H]2CN(C)C[C@@H]2c2ccc(/C=C/C(=O)Nc3ccccc3N)cc2)cc1 (racemic) | mL/min/kg | 54
Cc1cc(NC(=O)[C@H]2CN(C)C[C@@H]2c2ccc(/C=C/C(=O)Nc3ccccc3N)cc2)ccc1Cl (racemic) | mL/min/kg | 65

Origin of the recorded values: ChEMBL document CHEMBL2177000
